experiment: Cytotoxicity in Vero-76 cell-line (MTT)
Type: cell-based
measurement_context: monkey (Cercopithecus aethiops), Vero-76 cells (mock-infected), mock-infected Vero-76 cells
Property: CC50; scope: individual molecules

Look over these answered cases.
O=C(O)CCCCC(=O)Nc1ccc(-n2nnc3cc(Cl)c(Cl)cc32)cc1 : 37 µM
O=C(O)/C=C/C(=O)Nc1ccc(-n2nnc3cc(Cl)c(Cl)cc32)cc1 : > 100 µM
C#C[C@@]1(O)[C@H](O)[C@@H](CO)O[C@H]1n1ccc(N)nc1=O [Compound 2ec, 2′-C-ethynyl-cytidine, reference compound] : > 100 µM
O=C(O)CCCC(=O)Nc1ccc(-n2nnc3cc(Cl)c(Cl)cc32)cc1 : > 100 µM
O=C(CCCC(=O)Nc1ccc(Cn2nnc3cc(Cl)c(Cl)cc32)cc1)Nc1ccc(Cn2nnc3cc(Cl)c(Cl)cc32)cc1 : 75 µM

Asked: Using the record for `O=C(O)CCC(=O)Nc1ccc(-n2nnc3cc(Cl)c(Cl)cc32)cc1` , report its CC50.
Given back: 90 µM

Asked: Using the record for Cc1cc(CCCOc2c(C)cc(-c3noc(C(F)(F)F)n3)cc2C)on1 [P, Pleconaril, reference compound] , report its CC50.
Given back: > 100 µM

Asked: Using the record for `O=C(CCC(=O)Nc1ccc(Cn2nnc3cc(Cl)c(Cl)cc32)cc1)Nc1ccc(Cn2nnc3cc(Cl)c(Cl)cc32)cc1` , report its CC50.
Given back: > 100 µM
